Each entry below lists one item and its recorded [35S]-GTPγS binding (%) value.
Study System: human CaR (Homo sapiens)
Construct: expressed in transfected cells; host or cells: CHO-K1 cells stably transfected with pMSRαneo-CaR (cDNA amplified from human kidney cDNA); membrane fraction used
Sequence (P41180 20-1078): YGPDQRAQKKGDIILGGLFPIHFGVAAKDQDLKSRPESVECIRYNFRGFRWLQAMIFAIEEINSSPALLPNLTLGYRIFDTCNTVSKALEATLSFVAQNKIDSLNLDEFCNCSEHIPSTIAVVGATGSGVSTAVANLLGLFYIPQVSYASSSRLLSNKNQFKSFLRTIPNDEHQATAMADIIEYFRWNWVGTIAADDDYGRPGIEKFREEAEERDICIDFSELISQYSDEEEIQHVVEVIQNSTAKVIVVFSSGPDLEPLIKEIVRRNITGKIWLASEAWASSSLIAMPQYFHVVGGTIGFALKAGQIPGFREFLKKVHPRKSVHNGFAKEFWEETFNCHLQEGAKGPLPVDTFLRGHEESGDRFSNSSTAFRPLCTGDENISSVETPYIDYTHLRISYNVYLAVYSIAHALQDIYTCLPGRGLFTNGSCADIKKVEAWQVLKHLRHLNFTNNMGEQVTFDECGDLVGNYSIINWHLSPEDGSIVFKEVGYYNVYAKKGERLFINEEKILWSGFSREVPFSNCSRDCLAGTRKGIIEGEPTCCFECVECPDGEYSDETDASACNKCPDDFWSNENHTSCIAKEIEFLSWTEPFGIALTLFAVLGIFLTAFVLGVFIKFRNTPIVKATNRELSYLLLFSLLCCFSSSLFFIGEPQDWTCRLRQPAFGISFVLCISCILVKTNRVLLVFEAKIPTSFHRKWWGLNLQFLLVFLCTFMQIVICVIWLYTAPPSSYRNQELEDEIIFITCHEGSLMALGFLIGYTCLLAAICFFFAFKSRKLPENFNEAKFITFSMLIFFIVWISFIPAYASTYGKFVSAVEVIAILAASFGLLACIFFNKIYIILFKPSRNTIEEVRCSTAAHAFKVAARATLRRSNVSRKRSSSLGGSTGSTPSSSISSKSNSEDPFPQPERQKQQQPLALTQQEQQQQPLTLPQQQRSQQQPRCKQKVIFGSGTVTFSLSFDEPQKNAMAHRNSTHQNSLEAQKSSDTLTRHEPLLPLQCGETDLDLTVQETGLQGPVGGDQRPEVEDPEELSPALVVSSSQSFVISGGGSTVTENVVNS
Method: [35S]-GTPγS binding assay in membrane fraction of human CaR-expressing CHO cells
Type: biochemical
Measurement Conditions: test compound 1 μM; relative to binding with 6 mM calcium only (100×(t′−b)/(t−b)); compounds marked antagonist
Procedure: Preparation of membrane fraction is described bellow. The human CaR-expressing CHO cells were inoculated to a F500 flask in 1.8×10^5 cells/flask followed by cultivation for 2 days. The cells were scraped with 10 ml of Phosphate-Buffered Saline containing 0.02% EDTA. […] The GTPγS binding activity was measured as follows. […] After washing fourth with 300 μl of Phosphate-Buffered Saline, the amount of [^35S]-GTPγS bound to the filter was measured using a Top-count scintillation counter. […]

Consider the worked cases shown below.
> print(dat)
                                   molecule  measured.result
1  Cc1ccc(C(OC2CCN(C(=O)c3cnn4c3NC(c3ccccc3)CC4C(F)(F)F)CC2)c2ccc(C)cc2)cc1 (stereo not drawn)      10 (1 μM) %
2  CCC(CC)(NC(=O)c1cnn2c1NC(c1ccccc1)CC2C(F)(F)F)c1ccc(C(F)(F)F)cc1 (stereo not drawn)       0 (1 μM) %
3  COc1ccc(C(NC(=O)c2cnn3c2NC(c2ccccc2)CC3C)c2ccc(OC)cc2)cc1 (stereo not drawn)       0 (1 μM) %
4  CCC(CC)(NC(=O)c1cnn2c1NC(c1ccccc1)CC2(C)C)c1ccc(-c2ccsc2)cc1 (stereo not drawn)       0 (1 μM) %

For record CC1(C(F)(F)F)CC(c2ccccc2)Nc2c(C(=O)NC34CC5CC(CC(C5)C3)C4)cnn21 (stereo not drawn) the listed [35S]-GTPγS binding (%) is 12 (1 μM) %

For record COc1ccc(C(CNC(=O)c2cnn3c2NC(c2ccccc2)CC3C(F)(F)F)c2ccccc2)cc1 (stereo not drawn) the listed [35S]-GTPγS binding (%) is 34 (1 μM) %
